IC50: recorded values
system_tested: Human serotonin 5-HT6 receptor (Homo sapiens, UniProt P50406)
Construct: made in house; host or cells: insect Sf21 cells (baculovirus vector BacPAK8)
Sequence (P50406 whole entry): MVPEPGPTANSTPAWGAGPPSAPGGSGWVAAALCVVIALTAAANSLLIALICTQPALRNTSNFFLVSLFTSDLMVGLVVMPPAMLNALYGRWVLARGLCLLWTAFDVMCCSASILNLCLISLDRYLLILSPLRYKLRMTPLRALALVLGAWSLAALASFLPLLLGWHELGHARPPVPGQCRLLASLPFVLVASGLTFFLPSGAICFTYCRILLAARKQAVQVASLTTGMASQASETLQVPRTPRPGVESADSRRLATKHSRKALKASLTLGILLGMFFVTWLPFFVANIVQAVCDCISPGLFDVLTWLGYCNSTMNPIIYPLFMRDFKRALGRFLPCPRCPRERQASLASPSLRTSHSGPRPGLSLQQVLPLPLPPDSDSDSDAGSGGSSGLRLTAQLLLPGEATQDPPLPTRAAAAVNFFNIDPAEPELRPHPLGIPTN
measurement_notes: [3H]LSD binding assay on cloned 5-HT6 receptor membranes
condition_set: Table 2; 1.87 nM [3H]LSD, 37 C, 60 min; read-out: IC50 (nM), binding affinity to the 5-HT6 receptor
# number only, unit nM dropped from output

Below, 5 compounds whose answers are already recorded.
CC1(c2ccc(O)cc2)C(=O)c2c(N3CCNCC3)cc(Cl)cc2N(Cc2cccc(Br)c2)C1=O (stereo not shown) [Example 34]; 3.6
CC1(c2ccc(O)cc2)C(=O)c2c(N3CCNCC3)cc(Cl)cc2N(CC2CCCCC2)C1=O (stereo not shown) [Example 49]; 11.7
CCNc1ccc([C@]2(C)C(=O)c3c(N4CCN(C)CC4)cc(Cl)cc3N(Cc3ccccc3)C2=O)cc1 (stereo in doubt) [Example 6]; 3.4
COc1ccc(C2(C)C(=O)c3c(N4CCNCC4)cc(Cl)cc3N(Cc3cccc(OC)c3)C2=O)cc1 (stereo not shown) [Example 27]; 2.3
CCN1C(=O)C(C)(c2ccc(OC)cc2)C(=O)c2c(N3CCNCC3)cc(Cl)cc21 (stereo not shown) [Example 46]; 49.1

## Input Request the reported IC50 associated with CC1(c2ccc(O)cc2)C(=O)c2c(N3CCNCC3)cc(Cl)cc2N(Cc2ccc(O)cc2)C1=O (stereo not shown) [Example 32]
## Output 1.7

## Input Request the reported IC50 associated with CN1CCN(c2cc(Cl)cc3c2C(=O)C(C)(c2ccc(O)cc2)C(=O)N3Cc2cccc(N)c2)CC1 (stereo not shown) [Example 10]
## Output 6.2

====

system_tested: hD2L (Homo sapiens)
Construct: purchased BioSignal Packard Inc., Montreal, Canada
Sequence (P14416 whole entry): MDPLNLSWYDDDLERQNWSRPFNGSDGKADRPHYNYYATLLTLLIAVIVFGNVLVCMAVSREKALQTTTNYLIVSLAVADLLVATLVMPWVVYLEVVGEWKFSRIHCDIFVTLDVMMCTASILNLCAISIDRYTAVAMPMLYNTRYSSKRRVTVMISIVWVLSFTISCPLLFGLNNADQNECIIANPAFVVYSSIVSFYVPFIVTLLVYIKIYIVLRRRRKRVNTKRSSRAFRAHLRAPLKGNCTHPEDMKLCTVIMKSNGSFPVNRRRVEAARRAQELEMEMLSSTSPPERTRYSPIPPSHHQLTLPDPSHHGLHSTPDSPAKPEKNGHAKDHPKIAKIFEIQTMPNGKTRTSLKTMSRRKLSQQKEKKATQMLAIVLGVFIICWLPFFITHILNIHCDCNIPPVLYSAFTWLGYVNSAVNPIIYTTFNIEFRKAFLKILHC
measurement_notes: Radioligand binding, dopamine D2 ([3H]spiperone)
condition_set: Table 4; [3H]spiperone 1 nM; read-out: Binding affinity, IC50 (nM) D2
IC50: recorded values
# number only, unit nM dropped from output

CC1(c2ccc(Cl)cc2)C(=O)c2c(N3CCNCC3)cc(Cl)cc2N(Cc2ccccc2)C1=O (stereo not shown) [Example 19]; 8450
CCN(CC)c1ccc(C2(C)C(=O)c3c(N4CCNCC4)cc(Cl)cc3N(Cc3ccccc3)C2=O)cc1 (stereo not shown) [Example 17]; 9050
COc1ccc(C2(C)C(=O)c3c(N4CCNCC4)cc(Cl)cc3N(Cc3nc4ccccc4[nH]3)C2=O)cc1 (stereo not shown) [Example 43]; 9010
CC1(c2ccccc2)C(=O)c2c(N3CCNCC3)cc(Cl)cc2N(Cc2ccccc2)C1=O (stereo not shown) [Example 22]; 2450
COc1ccc(C2(C)C(=O)c3c(N4CCNCC4)cc(Cl)cc3N(Cc3ccc(-c4ccccc4)cc3)C2=O)cc1 (stereo not shown) [Example 41]; 7680

## Input # value lookup — system hD2L (Homo sapiens), readout IC50, item CC1(c2cccc(O)c2)C(=O)c2c(N3CCNCC3)cc(Cl)cc2N(Cc2ccccc2)C1=O (stereo not shown) [Example 51]
## Output 8650

====

experimental_endpoint: melting point

COc1ccc(C2(C)C(=O)c3c(N4CCNCC4)cc(Cl)cc3N(Cc3ccccc3OC)C2=O)cc1 (centres unmarked) [Example 29]; 153 to 155 °C
COc1ccc(C2(C)C(=O)c3c(N4CCNCC4)cc(Cl)cc3N(Cc3cccc(N)c3)C2=O)cc1 (centres unmarked) [Example 25]; 183 to 184 °C

## Input Request the reported melting point associated with COc1cccc(C2(C)C(=O)c3c(N4CCNCC4)cc(Cl)cc3N(Cc3ccccc3)C2=O)c1 (centres unmarked) [Example 50]
## Output 110 to 112 °C

## Input Request the reported melting point associated with CC1(c2ccc(O)cc2)C(=O)c2c(N3CCNCC3)cc(Cl)cc2N(Cc2cccc(O)c2)C1=O (centres unmarked) [Example 28]
## Output 229 to 230 °C

## Input Request the reported melting point associated with CC1(c2ccc(O)cc2)C(=O)c2c(N3CCNCC3)cc(Cl)cc2N(Cc2ccccc2Br)C1=O (centres unmarked) [Example 36]
## Output 264 to 265 °C

## Input Request the reported melting point associated with COc1ccc(C2(C)C(=O)c3c(N4CCNCC4)cc(Cl)cc3N(Cc3ccc4ccccc4c3)C2=O)cc1 (centres unmarked) [Example 39]
## Output 169 to 170 °C

## Input Request the reported melting point associated with CC1(c2ccc(O)cc2)C(=O)c2c(N3CCNCC3)cc(Cl)cc2N(Cc2ccc(-c3ccccc3)cc2)C1=O (centres unmarked) [Example 42]
## Output 240 to 241 °C

====

system_tested: hD2L (Homo sapiens)
Construct: purchased BioSignal Packard Inc., Montreal, Canada
measurement_notes: Radioligand binding, dopamine D2 ([3H]spiperone)
condition_set: Table 4; [3H]spiperone 1 nM; read-out: Binding affinity, IC50 (nM) D2
experimental_endpoint: log10 IC50 (log10 of the value in nM)
Hi team, quick reminder: these entries are log10 of IC50 (nM).

COc1ccc(C2(C)C(=O)c3c(N4CCNCC4)cc(Cl)cc3N(Cc3cccc([N+](=O)[O-])c3)C2=O)cc1 (centres unmarked) [Example 23]; 3.84
CN1CCN(c2cc(Cl)cc3c2C(=O)C(C)(c2ccc(OCc4ccccc4)c(Br)c2)C(=O)N3Cc2ccccc2)CC1 (centres unmarked) [Example 12]; 3.81
CC1(c2ccc(O)cc2)C(=O)c2c(N3CCNCC3)cc(Cl)cc2N(Cc2ccc3ccccc3c2)C1=O (centres unmarked) [Example 40]; 3.93
CN1CCN(c2cc(Cl)cc3c2C(=O)C(C)(c2ccccc2)C(=O)N3Cc2ccccc2)CC1 (centres unmarked) [Example 11]; 2.93
COc1ccc(C2(C)C(=O)c3c(N4CCNCC4)cc(Cl)cc3N(Cc3cccnc3)C2=O)cc1 (centres unmarked) [Example 37]; 3.91
CCN(CC)c1ccc(C2(C)C(=O)c3c(N4CCN(C)CC4)cc(Cl)cc3N(Cc3ccccc3)C2=O)cc1 (centres unmarked) [Example 5]; 3.85

## Input Request the reported log10 IC50 associated with COc1ccc(CN2C(=O)C(C)(c3ccc(OC)cc3)C(=O)c3c(N4CCNCC4)cc(Cl)cc32)cc1 (centres unmarked) [Example 31]
## Output 3.81

## Input Request the reported log10 IC50 associated with CC1(c2ccc(O)cc2)C(=O)c2c(N3CCNCC3)cc(Cl)cc2N(Cc2cccc([N+](=O)[O-])c2)C1=O (centres unmarked) [Example 24]
## Output 3.48

## Input Request the reported log10 IC50 associated with CC1(c2ccc(O)cc2)C(=O)c2c(N3CCNCC3)cc(Cl)cc2N(Cc2cccc(N)c2)C1=O (centres unmarked) [Example 26]
## Output 3.92

====

system_tested: 5-HT2c (Homo sapiens, UniProt P28335)
Construct: purchased Euroscreen/BioSignal Packard Inc
Sequence (P28335 33-458): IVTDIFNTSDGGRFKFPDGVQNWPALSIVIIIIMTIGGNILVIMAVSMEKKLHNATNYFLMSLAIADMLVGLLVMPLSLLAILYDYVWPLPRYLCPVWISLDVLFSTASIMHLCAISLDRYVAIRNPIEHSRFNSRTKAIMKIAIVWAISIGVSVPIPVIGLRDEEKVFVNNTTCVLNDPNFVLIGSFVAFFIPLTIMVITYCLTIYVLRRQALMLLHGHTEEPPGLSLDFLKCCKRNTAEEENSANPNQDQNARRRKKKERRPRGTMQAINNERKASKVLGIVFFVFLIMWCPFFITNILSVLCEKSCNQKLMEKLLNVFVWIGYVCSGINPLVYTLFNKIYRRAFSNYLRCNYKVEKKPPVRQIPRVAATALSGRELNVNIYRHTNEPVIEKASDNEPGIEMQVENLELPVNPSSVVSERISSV
measurement_notes: Radioligand binding, 5-HT2c ([3H]Mesulergine)
condition_set: Table 4; [3H]Mesulergine 1 nM; read-out: Binding affinity, IC50 (nM) 5-HT2c
Label scheme, based on IC50: class A (below 8000 nM), class B (8000 nM to below 9000 nM), class C (9000 nM or more)

See these solved cases before continuing.
CC1(c2ccc(I)cc2)C(=O)c2c(N3CCNCC3)cc(Cl)cc2N(Cc2ccccc2)C1=O (stereo not drawn); class A
CC1(c2ccc(O)cc2)C(=O)c2c(N3CCNCC3)cc(Cl)cc2N(Cc2ccc(-c3ccccc3)cc2)C1=O (stereo not drawn); class A
CCNc1ccc(C2(C)C(=O)c3c(N4CCNCC4)cc(Cl)cc3N(Cc3ccccc3)C2=O)cc1 (stereo not drawn); class B
COc1ccc(C2(C)C(=O)c3c(N4CCN(C)CC4)cc(Cl)cc3N(Cc3cccc(N)c3)C2=O)cc1 (stereo not drawn); class C
COc1ccc(C2(C)C(=O)c3c(N4CCNCC4)cc(Cl)cc3N(Cc3cccc([N+](=O)[O-])c3)C2=O)cc1 (stereo not drawn); class B
C[C@@]1(c2ccc(O)cc2)C(=O)c2c(N3CCNCC3)cc(Cl)cc2N(Cc2ccccc2)C1=O; class C

Consider now this further compound.
## Input Consider `COc1ccc([C@]2(C)C(=O)c3c(N4CCNCC4)cc(Cl)cc3N(Cc3ccccc3)C2=O)cc1` . To which IC50 class does it belong?
## Output class C

====

system_tested: D1 (Homo sapiens, UniProt P21728)
Sequence (P21728 whole entry): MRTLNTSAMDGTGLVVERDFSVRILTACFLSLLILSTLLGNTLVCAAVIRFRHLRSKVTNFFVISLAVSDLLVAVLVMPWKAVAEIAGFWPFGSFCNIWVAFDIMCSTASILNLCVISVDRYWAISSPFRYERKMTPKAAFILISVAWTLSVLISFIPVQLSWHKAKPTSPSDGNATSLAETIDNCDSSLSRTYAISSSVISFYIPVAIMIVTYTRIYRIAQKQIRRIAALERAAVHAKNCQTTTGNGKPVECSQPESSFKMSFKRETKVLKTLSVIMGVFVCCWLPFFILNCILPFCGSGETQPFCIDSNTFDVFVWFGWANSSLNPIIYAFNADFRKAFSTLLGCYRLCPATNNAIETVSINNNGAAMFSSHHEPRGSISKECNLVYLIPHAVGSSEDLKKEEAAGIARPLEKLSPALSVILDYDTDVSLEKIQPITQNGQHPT
measurement_notes: Radioligand binding, dopamine D1
condition_set: Table 4; read-out: Binding affinity, IC50 (nM) D1
IC50: recorded values
# number only, unit nM dropped from output

Below, 4 molecules whose answers are already recorded.
CC1(c2cccc(O)c2)C(=O)c2c(N3CCNCC3)cc(Cl)cc2N(Cc2ccccc2)C1=O (stereo not shown) [Example 51]; 6390
CC1(c2ccc(I)cc2)C(=O)c2c(N3CCNCC3)cc(Cl)cc2N(Cc2ccccc2)C1=O (stereo not shown) [Example 21]; 1620
COc1ccc(C2(C)C(=O)c3c(N4CCNCC4)cc(Cl)cc3N(Cc3ccc4ccccc4n3)C2=O)cc1 (stereo not shown) [Example 44]; 7650
COc1ccc(C2(C)C(=O)c3c(N4CCNCC4)cc(Cl)cc3N(Cc3ccccc3Br)C2=O)cc1 (stereo not shown) [Example 35]; 9750

## Input Request the reported IC50 associated with CN1CCN(c2cc(Cl)cc3c2C(=O)C(C)(c2ccc(OCc4ccccc4)c(Br)c2)C(=O)N3Cc2ccccc2)CC1 (stereo not shown) [Example 12]
## Output 1240

## Input Request the reported IC50 associated with COc1ccc(C2(C)C(=O)c3c(N4CCNCC4)cc(Cl)cc3N(CC3CCCCC3)C2=O)cc1 (stereo not shown) [Example 48]
## Output 7650

Entry source: patent US20080275058A1
